System: S. Typhimurium ATCC14028
Test: Static peg assay for prevention of biofilm formation (Calgary device, crystal violet)
Format: cell-based, Salmonella Typhimurium
Settings: Salmonella enterica; ATCC14028, 16° C.; read-out: IC50 biofilm inhibition
VALUE_KIND: pIC50
Give only the number. pIC50 is defined as minus log10 of concentration in molar units.

>>> numeric_result("Fc1ccccc1Sc1ccccc1CNC1=NCCN1")
4.48
>>> numeric_result("c1ccc(Sc2ccc3c(c2)OCO3)c(CNC2=NCCN2)c1")
4.38
>>> numeric_result("c1ccc(Sc2cccc3ccccc23)c(CNC2=NCCN2)c1")
4.78

Please look at the following compound next.
Fc1ccc(Sc2ccccc2CNC2=NCCN2)cc1 yielded pIC50 of 4.66

----------
System: S. Typhimurium ATCC14028
Test: Static peg assay for prevention of biofilm formation (Calgary device, crystal violet)
Assay type: cell-based, Salmonella Typhimurium
Settings: 25° C., Table 16; read-out: S. Typhimurium IC50 (biofilm formation)
VALUE_KIND: pIC50
Answer as the number alone; pIC50 is minus log10 of concentration in mol/L.

Entry CCCCCCCN1c2nccc[n+]2CC1(O)c1ccc(Cl)cc1 (racemic) — recorded pIC50 = 5.17

----------
Test system: Pseudomonas aeruginosa PA14
Assay: Static peg assay for prevention of biofilm formation (Calgary device, crystal violet)
Format: cell-based
Conditions: 25° C., Table 22; read-out: P. aeruginosa IC50 (biofilm formation)
Entries and their measured pIC50 follow.
Give only the number. pIC50 is defined as minus log10 of concentration in molar units.

Recorded pIC50 for Clc1ccc(-c2cnc(NCc3ccccc3)[nH]2)cc1 on Pseudomonas aeruginosa PA14 was 4.58

Case Fc1ccc(-c2cnc(NCc3ccc4c(c3)OCO4)[nH]2)cc1 , Pseudomonas aeruginosa PA14, pIC50 recorded as 3.34

Measured pIC50 (Pseudomonas aeruginosa PA14), entry COc1cccc(CCNc2ncc(-c3ccc([N+](=O)[O-])cc3)[nH]2)c1 : 5.43

----------
Listed here are molecules together with their documented pIC50.
System: Pseudomonas aeruginosa PA14
Assay: Antibacterial activity: growth inhibition, OD600 after 24 h (GIC50)
Format: cell-based
Details: 25° C.
pIC50 is a log-scale quantity: -log10 of the concentration expressed in molar.

Measured pIC50, OC1(c2ccc(Cl)cc2)C[n+]2cccnc2N1C1CCCCC1.[Br-] (stereo not drawn) : 4.21

Input OC1(c2ccc(I)cc2)C[n+]2cccnc2N1Cc1ccccc1.[Br-] (stereo not drawn) . Output pIC50: 4.29

Lab book: pIC50 of O=[N+]([O-])c1ccc(C2(O)C[n+]3cccnc3N2C2CCCCCCCCCCC2)cc1.[Br-] (stereo not drawn) noted as 5.05

----------
System: S. Typhimurium ATCC14028
Test: Static peg assay for prevention of biofilm formation (Calgary device, crystal violet)
Format: cell-based, Salmonella Typhimurium
Details: Salmonella enterica; 25° C., Table 11; read-out: IC50 (biofilm formation)
Returns: string. Value is MET if measured IC50 is below 200 µM, and NOT MET if it is greater than or equal to it.

>>> assigned_label("COc1ccc(CN2c3nccc[n+]3CC2(O)c2ccc([N+](=O)[O-])cc2)cc1 (stereo not shown)")
"NOT MET"
>>> assigned_label("N#Cc1ccc(C2(O)C[n+]3cccnc3N2C2CCCCC2)cc1 (stereo not shown)")
"NOT MET"
>>> assigned_label("CSc1ccc(C2(O)C[n+]3cccnc3N2C2CCCCC2)cc1 (stereo not shown)")
"MET"
>>> assigned_label("Cc1ccc(C2(O)C[n+]3cccnc3N2C(C)C)cc1 (stereo not shown)")
"NOT MET"

Ask: Input COc1ccc(CCN2c3nccc[n+]3CC2(O)c2ccc([N+](=O)[O-])cc2)cc1OC (stereo not shown) ; condition: IC50 strictly below 200 µM. Does it hold?
Result: MET

Ask: Just wondering, is IC50 of CCCCCCN1c2nccc[n+]2C(C)C1(O)c1ccccc1 (stereo not shown) below 200 µM?
Result: NOT MET

Ask: Does COc1ccc(C2(O)C[n+]3cccnc3N2C2CCCCC2)cc1 (stereo not shown) have IC50 strictly under 200 µM?
Result: MET

----------
Tested on: S. Typhimurium SL1344
Test: Static peg assay for prevention of biofilm formation (Calgary device, crystal violet)
Format: cell-based
Conditions: Salmonella enterica, SL1344, 16° C., read-out: IC50 biofilm inhibition
VALUE_KIND: IC50 (µM)
Kindly provide the numeric value in µM only, without the unit symbol.

>>> numeric_result("c1ccc(Sc2cccc3ccccc23)c(CNC2=NCCN2)c1")
15.5

The compound listed as Fc1ccccc1Sc1ccccc1CNC1=NCCN1 shows IC50 equal to 68.1

----------
The reader will find reported log10(IC50) values listed item by item below.
System: Pseudomonas aeruginosa PA14
Experiment: Static peg assay for prevention of biofilm formation (Calgary device, crystal violet)
Type: cell-based
Details: 25° C., 24 hours, Table 15; read-out: (2) IC50 (biofilm inhibition)
Values reflect log10 of reported IC50 (µM).

Look over these answered cases.
>>> numeric_result("CCCCCCCCN1c2nccc[n+]2CC1(O)c1ccc(SC)cc1 (stereo not drawn) [Compound 51]")
1.46
>>> numeric_result("CCCCCCCCCN1c2nccc[n+]2CC1(O)c1ccc(Cl)cc1 (racemic) [Compound 22]")
1.78

Noted for CCCCCCCCN1c2nccc[n+]2CC1(O)c1ccc([N+](=O)[O-])cc1 (stereo not drawn) [Compound 35] : its log10(IC50) reads 0.88

Quick note, log10(IC50) for CCCCCCN1c2nccc[n+]2CC1(O)c1ccccc1 (racemic) [Compound 6] landed at 0.50

Reported log10(IC50) of CCCCCCCN1c2nccc[n+]2CC1(O)c1ccccc1 (racemic) [Compound 7] : 0.77

Reported log10(IC50) for OC1(c2ccccc2)C[n+]2cccnc2N1C1CCCCCCC1 (stereo not drawn) [Compound 60] was 0.67

----------
The entries below are paired with their reported log10 IC50.
System: Pseudomonas aeruginosa PA14
Assay: Static peg assay for prevention of biofilm formation (Calgary device, crystal violet)
Type: cell-based
Conditions: 25° C., Table 16; read-out: P. aeruginosa IC50 (biofilm formation)
On a log10 scale: recorded IC50, unit µM.

For this compound ( CC(C)CN1c2nccc[n+]2CC1(O)c1ccccc1 (racemic) [Compound 4] ), measured log10 IC50 is 2.46

Entry CC(C)CN1c2nccc[n+]2CC1(O)c1ccc([N+](=O)[O-])cc1 (stereo not drawn) [Compound 32] — recorded log10 IC50 = 2.28

Per the record, CN1c2nccc[n+]2CC1(O)c1ccccc1 (racemic) [Compound 1] has log10 IC50 of 2.33

Measured log10 IC50, CCCCCCCCN1c2nccc[n+]2CC1(O)c1ccc(OC)cc1 (stereo not drawn) [Compound 46] : 1.96

// log10 IC50 value for CCCCCCCCCN1c2nccc[n+]2CC1(O)c1ccc(Cl)cc1 (racemic) [Compound 22] : 1.32

For this compound ( CCCCCCCN1c2nccc[n+]2CC1(O)c1ccccc1 (racemic) [Compound 7] ), measured log10 IC50 is 1.39

----------
Tested on: S. Typhimurium ATCC14028
Assay: Static peg assay for prevention of biofilm formation (Calgary device, crystal violet)
Format: cell-based, Salmonella Typhimurium
Conditions: 25° C., Table 19; read-out: IC50 (biofilm formation)
VALUE_KIND: pIC50
// pIC50 here means minus log10 of the molar concentration (mol/L)

Example results:
>>> numeric_result("COc1cccc(CCN2c3nccc[n+]3CC2(O)c2ccc(F)cc2)c1 (centres unmarked) [Compound 76]")
3.98
>>> numeric_result("COc1cccc(CCN2c3nccc[n+]3CC2(O)c2ccc([N+](=O)[O-])cc2)c1 (centres unmarked) [Compound 75]")
3.91
>>> numeric_result("OC1(c2ccc(I)cc2)C[n+]2cccnc2N1Cc1ccccc1.[Br-] (centres unmarked) [Compound 73]")
4.44
>>> numeric_result("OC1(c2ccc(F)cc2)C[n+]2cccnc2N1Cc1ccc2c(c1)OCO2.[Br-] (centres unmarked) [Compound 79]")
4.76
>>> numeric_result("OC1(c2ccc3c(c2)OCO3)C[n+]2cccnc2N1Cc1ccc2c(c1)OCO2 (centres unmarked) [Compound 80]")
4.27

# compound COc1cccc(CCN2c3nccc[n+]3CC2(O)c2ccc(Cl)c(Cl)c2)c1.[Br-] (centres unmarked) [Compound 77] ; its pIC50 = 5.14

The measured pIC50 associated with O=[N+]([O-])c1ccc(C2(O)C[n+]3cccnc3N2Cc2ccccc2)cc1 (centres unmarked) [Compound 72] reads 3.76

The value of pIC50 measured for the compound COc1ccc(CN2c3nccc[n+]3CC2(O)c2ccc(Br)cc2)cc1 (centres unmarked) [Compound 74] turned out to be 3.96

----------
Test system: S. Typhimurium ATCC14028
Assay: Static peg assay for prevention of biofilm formation (Calgary device, crystal violet)
Format: cell-based, Salmonella Typhimurium
Conditions: 25° C., Table 16; read-out: S. Typhimurium IC50 (biofilm formation)
VALUE_KIND: IC50 (µM)
Give the quantity in µM, number only.

>>> numeric_result("CCCCCCN1c2nccc[n+]2CC1(O)c1ccc([N+](=O)[O-])cc1.[Br-] (stereo not drawn)")
54.7
>>> numeric_result("CN1c2nccc[n+]2CC1(O)c1ccc(Cl)cc1 (racemic)")
225
>>> numeric_result("CCCCCCN1c2nccc[n+]2CC1(O)c1ccccc1 (racemic)")
102
>>> numeric_result("CCN1c2nccc[n+]2CC1(O)c1ccc([N+](=O)[O-])cc1 (racemic)")
579
>>> numeric_result("CCCCCCCCCN1c2nccc[n+]2CC1(O)c1ccc(Cl)cc1 (racemic)")
18.3
>>> numeric_result("CCCCN1c2nccc[n+]2CC1(O)c1ccc(OC)cc1 (stereo not drawn)")
314
>>> numeric_result("CCCCCCCCN1c2nccc[n+]2CC1(O)c1ccc(Cl)cc1 (racemic)")
7
>>> numeric_result("CN1c2nccc[n+]2CC1(O)c1ccc([N+](=O)[O-])cc1 (racemic)")
698

Input CCCCCCCCCCCN1c2nccc[n+]2CC1(O)c1ccc(Cl)cc1 (racemic) . Output IC50: 61.9
